Entry source: paper PMC9860728

studySystem: AChE (Electrophorus electricus, UniProt O42275)
Sequence (O42275 24-633): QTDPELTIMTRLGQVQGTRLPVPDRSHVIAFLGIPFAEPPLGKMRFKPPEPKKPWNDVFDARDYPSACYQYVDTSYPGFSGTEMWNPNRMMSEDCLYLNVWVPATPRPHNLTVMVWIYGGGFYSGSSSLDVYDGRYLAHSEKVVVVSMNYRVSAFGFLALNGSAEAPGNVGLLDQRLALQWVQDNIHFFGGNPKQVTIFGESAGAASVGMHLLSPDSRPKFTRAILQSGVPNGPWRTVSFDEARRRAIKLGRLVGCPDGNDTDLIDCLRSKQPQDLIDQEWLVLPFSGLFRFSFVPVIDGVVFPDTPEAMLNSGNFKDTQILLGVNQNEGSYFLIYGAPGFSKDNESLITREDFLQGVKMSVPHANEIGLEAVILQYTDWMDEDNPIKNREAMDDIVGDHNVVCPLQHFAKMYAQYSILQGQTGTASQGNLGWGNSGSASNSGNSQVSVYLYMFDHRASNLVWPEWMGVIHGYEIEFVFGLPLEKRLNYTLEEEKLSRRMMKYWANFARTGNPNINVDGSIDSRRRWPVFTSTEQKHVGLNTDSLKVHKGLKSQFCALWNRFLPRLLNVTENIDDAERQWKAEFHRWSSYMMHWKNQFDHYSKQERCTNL
assayDetails: AChE inhibition assay (Ellman method, ATCI)
Assay type: biochemical
measurementContext: 10 μM compound; mean ± SD; read-out: Residual Activities at 10 μM (%) AChE
Values of remaining activity at 10 µM strictly less than 30% map to 1, and values of at least 30% map to -1.

Below 30% on remaining activity at 10 µM? Entry CN1CCN(c2ccc(C(=O)/C=C/c3cccc(C(F)(F)F)c3)cc2)CC1 [Compound 2a]
-1

Below 30% on remaining activity at 10 µM? Entry CN1CCN(c2ccc(C(=O)/C=C/c3ccc(F)cc3)cc2)CC1 [Compound 2c]
-1

Below 30% on remaining activity at 10 µM? Entry CN1CCN(c2ccc(C(=O)/C=C/c3ccc(C#N)cc3)cc2)CC1 [Compound 2d]
1

Below 30% on remaining activity at 10 µM? Entry COc1cc(/C=C/C(=O)c2ccc(N3CCN(C)CC3)cc2)ccc1F [Compound 2m]
1

Below 30% on remaining activity at 10 µM? Entry CN1CCN(c2ccc(C(=O)/C=C/c3cc(F)cc(C(F)(F)F)c3)cc2)CC1 [Compound 2i]
-1

Below 30% on remaining activity at 10 µM? Entry CN1CCN(c2ccc(C(=O)/C=C/c3ccc(Cl)c(C(F)(F)F)c3)cc2)CC1 [Compound 2l]
-1
